Assignment: determine reported Mean % WT Binding for the given binders.
target: human CD33 N344A (human, UniProt P20138 18-364)
Sequence (P20138 18-364 N344A limits assumed): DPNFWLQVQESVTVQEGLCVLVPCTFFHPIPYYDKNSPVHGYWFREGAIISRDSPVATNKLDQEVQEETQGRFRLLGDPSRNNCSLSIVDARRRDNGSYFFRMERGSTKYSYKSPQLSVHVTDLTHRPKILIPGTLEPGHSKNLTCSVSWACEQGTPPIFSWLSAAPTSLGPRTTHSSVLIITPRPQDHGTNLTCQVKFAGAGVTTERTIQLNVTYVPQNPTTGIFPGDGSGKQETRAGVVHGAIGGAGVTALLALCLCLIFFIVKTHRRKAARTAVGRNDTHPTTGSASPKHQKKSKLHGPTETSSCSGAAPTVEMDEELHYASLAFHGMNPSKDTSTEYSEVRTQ
experimentSummary: flow cytometry, alanine scan

Memo: Refmab #2 (antibody, V domains shown, The alanine scan used IgG or Fab) VH: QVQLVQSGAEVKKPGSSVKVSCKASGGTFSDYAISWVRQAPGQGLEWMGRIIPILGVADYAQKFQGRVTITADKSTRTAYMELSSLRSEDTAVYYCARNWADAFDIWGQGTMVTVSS VL: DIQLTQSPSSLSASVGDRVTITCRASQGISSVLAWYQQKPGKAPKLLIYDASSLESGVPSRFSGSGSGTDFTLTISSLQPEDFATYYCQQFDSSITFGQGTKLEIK , reported Mean % WT Binding: 88.1 % of WT

Memo: Refmab #4 (antibody, V domains shown, The alanine scan used IgG or Fab) VH: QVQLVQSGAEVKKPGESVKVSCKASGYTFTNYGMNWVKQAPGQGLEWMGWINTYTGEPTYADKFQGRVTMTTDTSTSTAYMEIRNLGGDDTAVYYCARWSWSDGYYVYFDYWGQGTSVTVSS VL: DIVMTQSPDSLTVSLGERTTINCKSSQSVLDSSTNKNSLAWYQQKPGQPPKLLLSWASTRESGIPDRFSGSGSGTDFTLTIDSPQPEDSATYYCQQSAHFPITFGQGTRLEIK , reported Mean % WT Binding: 71.2 % of WT

Memo: Refmab #1 (antibody, V domains shown, The alanine scan used IgG or Fab; also called hP67.6) VH: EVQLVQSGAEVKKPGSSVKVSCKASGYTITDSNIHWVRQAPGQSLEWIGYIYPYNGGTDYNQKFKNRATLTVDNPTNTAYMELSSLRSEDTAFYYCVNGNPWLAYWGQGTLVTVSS VL: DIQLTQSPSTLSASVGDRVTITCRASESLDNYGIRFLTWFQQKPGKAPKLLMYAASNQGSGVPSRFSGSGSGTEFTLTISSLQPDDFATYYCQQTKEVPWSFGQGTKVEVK , reported Mean % WT Binding: 72.1 % of WT

Memo: Refmab #3 (antibody, V domains shown, The alanine scan used IgG or Fab) VH: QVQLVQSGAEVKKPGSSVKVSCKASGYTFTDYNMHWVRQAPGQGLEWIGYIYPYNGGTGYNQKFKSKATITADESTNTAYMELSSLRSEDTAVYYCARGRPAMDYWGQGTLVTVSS VL: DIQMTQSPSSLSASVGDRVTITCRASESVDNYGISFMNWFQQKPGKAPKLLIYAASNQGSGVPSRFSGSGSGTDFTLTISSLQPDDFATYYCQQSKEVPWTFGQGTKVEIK , reported Mean % WT Binding: 118 % of WT
